Target: Recombinant A/South Carolina/1/1918 virus HA (influenza A/South Carolina/1/1918 …, UniProt Q9WFX3 18-520)
Sequence (Q9WFX3 18-520 limits assumed): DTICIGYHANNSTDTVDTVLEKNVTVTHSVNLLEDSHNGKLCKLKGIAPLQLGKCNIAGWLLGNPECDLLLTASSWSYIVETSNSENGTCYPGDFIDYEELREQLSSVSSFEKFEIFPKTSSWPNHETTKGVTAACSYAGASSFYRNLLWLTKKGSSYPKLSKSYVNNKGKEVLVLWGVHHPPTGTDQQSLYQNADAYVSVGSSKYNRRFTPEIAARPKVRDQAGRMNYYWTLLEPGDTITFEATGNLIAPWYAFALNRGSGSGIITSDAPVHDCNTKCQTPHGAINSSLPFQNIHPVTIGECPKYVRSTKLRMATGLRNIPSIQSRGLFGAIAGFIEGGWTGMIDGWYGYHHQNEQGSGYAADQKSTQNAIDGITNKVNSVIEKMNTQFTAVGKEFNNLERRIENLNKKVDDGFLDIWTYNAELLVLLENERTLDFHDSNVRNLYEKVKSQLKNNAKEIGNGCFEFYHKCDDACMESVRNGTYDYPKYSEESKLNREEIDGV
Parameter: pKd. Scope: all listed entries.
Just the number, please; pKd means minus log10 of the concentration in mol/L.

[[record]]
binder = "mAb 4D20 (antibody, V domains shown) VH: EVQLVESGPVLVKPTETLTVTCTVSGFSVDNDRMGVSWIRQPPGKALEWLAHIFSNDEKSYSTSLRSRLTISKDTSKRQVVLSMTDMDPVDTATYYCARAPSEYAAMDVWGQGTMVTVS VL: SYVLTQPPSVSVAPGETATVTCGGNNIGSKSVHWYQQKPGQAPVVVIYYDGDRPSGIPERFSGSNSGDTATLTISRVEAGDEADYYCLVWDYTSVHYVFGTGTKVTVLG"
value_observed = 9.85

[[record]]
binder = "mAb 1F1 (antibody, V domains shown) VH: EVQLVQSGGGVVQPRRSLRLSCAASGFTFSSYAMHWVRQAPGKGLEWVAVISYDGRNKYYADSVKGRFTVSRDNSKNTLYLQMNSLRAEDTSVYYCARELLMDYYDHIGYSPGPTWGQGTLVTVSS VL: QPVLTQPPSASGSPGQRVTISCSGSSSNIGSYTVNWYQQLPGTAPKLLIYSLNQRPSGVPDRFSGSKSGTSASLAISGLQSEDEAVYYCAAWDDSLSAHVVFGGGTKLTVLG"
value_observed = 8.27

[[record]]
binder = "mAb 2B12 (antibody, V domains shown) VH: EVQLQESGPGLVKPSQTLSLTCNVSGGSITGDYKWSWIRQPPGKGLEWIGHIHSTGTTYYNPSLRSRITISMDTSKNNLSLRLTSVTAADTAVYYCASHTLTSGHYPRDFDFWGQGTLVTVSS VL: SYVLTQPPSVSGTPGQRVIISCSGYSSNIGSNTVNWYQQFPGTAPRLLIYANNQRPPGVPDRFSGSKSGTSASLAISGLQSDDESDYYCAAWDDSLNGHWVFGGGTKLTVLG"
value_observed = 8.21


Please turn your attention to the following entry.
Prompt: Form field: reported pKd of mAb 1I20 (antibody, V domains shown) VH: EVQLVESGGGVVQPGGSLRLSCIASAFNLGIFGMHWVRQAPGKGLEWVAFIRYDGGKTFYADSVKGRFTISRDNSKNTLYLQMNSLRTEDTALYYCARDATADYYGPGSYPNWLDPWGQGTLVTVS VL: DIRLTQSPATLSVSPGERATLSCRASHSVSRNLAWYQQKPGRAPRLLVYDTSSRATGIPARFSGSGSGTEFTLTISSLQSEDFAVYYCQQYNNWPRTFGQGTKVDIK
Completion: 10.32
